# Test system: murine B lymphoma (reticulum cell sarcoma) cell line A20
# Assay type: cell-based
# Experimental Parameters: 4 h
# Method: The cytotoxic effects of the peptides on different human tumour cells were measured using the MTT colorimetric assay (Mosmann, 1983). […] This water insoluble formazan can be solubilized using isopropanol or other solvents and the dissolved material is measured spectrophotometrically. The absorbance was measured as a function of concentration of converted dye. […] The cytotoxicity was measured using the MTT method (Mosmann, 1983), with minor modifications. […]
pIC50: −log10 of the molar value. No end group written: not given here.
Measure Name: pIC50

INSERT INTO assay_data (residues, measure_name, assay_value) VALUES
  ('GWFKKTFHKVSHAVKSGIHAGQRGCSALGF [P17 HC]', 'pIC50', 5.41);

---

# System: Botrytis cinerea 101
# Experimental Parameters: 48 h
No end group written: not given here.
Measure Name: Minimal inhibitory concentration (MIC), Botrytis cinerea

INSERT INTO measurements (residues, assay_value) VALUES
  ('DLRGACAAAHAL [P17 LC]', '>100 µM'),
  ('GQRGCSALGF [P17 HC (21-30)]', '>100 µM'),
  ('SHAVKSGIHA [P17 HC (11-20)]', '>100 µM');
